assay: LD50 for dd-mouse; conditions: in vivo; dd-mouse weighing 20 ± 1 g
Structures can show the parent of a compound that is named as a salt.
quantityMeasured: LD50 (mg/kg)
# value in mg/kg; strip the unit string

Q: Name the reported LD50 value associated with the molecule COC1C(O)C(N)C(OC2OC(CN)CCC2N)C(O)C1N(C)C(=O)CN (stereo not shown) [Fortimicin D sulfate]
Ans: 159
